- System: ZR-75-1 cells
- measurement.protocol: Proliferation assay in ZR-75-1 cells
- Type: cell-based
- settings: Homo sapiens, 144 h, Alamar Blue, read-out: ZR75-1 proliferation assay, EC50[M] (arithmetic mean)
reported.endpoint: EC50 (M)
Numbers only, in M.

Sample records with EC50:
compound	target.of.assay	unit.spec	measured.result
CN(C)c1cc(C2CC2)cc2oc(C(=O)NS(=O)(=O)c3ccccc3-c3ccccc3)cc12	ZR-75-1 cells	M	8.67e-06
Cc1ccc2cccc(S(=O)(=O)NC(=O)c3cc4c(F)cc(C5CC5)cc4o3)c2n1	ZR-75-1 cells	M	1.26e-06
O=C(NS(=O)(=O)c1ccccc1)c1cc2c(F)cc(C3CC3)cc2o1	ZR-75-1 cells	M	3.21e-06
Cc1ccc2cccc(S(=O)(=O)NC(=O)c3cc4c(OC(F)F)cc(C5CC5)cc4o3)c2n1	ZR-75-1 cells	M	3.24e-06
CCOc1ccccc1S(=O)(=O)NC(=O)c1cc2c(C(F)(F)F)cc(C3CC3)cc2o1	ZR-75-1 cells	M	9.14e-06

# next molecule below
query: Entry under review: O=C(NS(=O)(=O)c1ccccc1-c1ccccc1)c1cc2ccc(-c3ccncc3)cc2o1 . Reported EC50?
result: 3.49e-06

###

- Tested on: ZR-75-1 cells
- measurement.protocol: Proliferation assay in ZR-75-1 cells
- Type: cell-based
- settings: Homo sapiens, 144 h, Alamar Blue, read-out: ZR75-1 proliferation assay, EC50[M] (arithmetic mean)
Answer each item with its documented EC50.
Give bare numbers, in M.

compound	EC50 [M]
O=C(NS(=O)(=O)c1ccc(Cl)cc1Cl)c1cc2c(F)cc(C3CC3)cc2o1 [Example 37]	6.28e-06

# next compound below
query: Entry under review: COc1ccc(C(C)(C)C)cc1S(=O)(=O)NC(=O)c1cc2c(F)cc(C3CC3)cc2o1 [Example 66] . Reported EC50?
result: 1.76e-07

###

- Test system: ZR-75-1 cells
- measurement.protocol: Proliferation assay in ZR-75-1 cells
- Assay type: cell-based
- settings: Homo sapiens, 144 h, Alamar Blue, read-out: ZR75-1 proliferation assay, EC50[M] (arithmetic mean)
reported.endpoint: EC50 (M)
One number for each entry, in M.

compound	target.of.assay	reported.endpoint	measured.result
O=C(NS(=O)(=O)c1ccccc1)c1cc2c(C(F)(F)F)cc(C3CC3)cc2o1 [Example 52]	ZR-75-1 cells	EC50	7.32e-06
CCOc1ccccc1S(=O)(=O)NC(=O)c1cc2ccc(C(C)C)cc2o1 [Example 55]	ZR-75-1 cells	EC50	1.27e-05
Cc1ccc2c(C)c(C(=O)NS(=O)(=O)c3ccccc3-c3ccccc3)oc2c1 [Example 14]	ZR-75-1 cells	EC50	8.7e-06
O=C(NS(=O)(=O)c1ccccc1-c1ccccc1)c1cc2ccc(C3CC3)cc2o1 [Example 16]	ZR-75-1 cells	EC50	5.93e-06
CC(C)c1ccc2cc(C(=O)NS(=O)(=O)c3ccccc3-c3ccccc3)oc2c1 [Example 54]	ZR-75-1 cells	EC50	5.75e-06
Cc1cc(C)c2cc(C(=O)NS(=O)(=O)c3ccccc3-c3ccccc3)oc2c1 [Example 9]	ZR-75-1 cells	EC50	1.81e-05
O=C(NS(=O)(=O)c1ccccc1-c1ccccc1)c1cc2c(F)cc(C3CC3)cc2o1 [Example 38]	ZR-75-1 cells	EC50	9.57e-07
CCOc1ccccc1S(=O)(=O)NC(=O)c1cc2c(F)cc(C3CC3)cc2o1 [Example 25]	ZR-75-1 cells	EC50	6.44e-07
Cc1cc(C)c2cc(C(=O)NS(=O)(=O)c3ccccc3-c3cccc(Cl)c3)oc2c1 [Example 11]	ZR-75-1 cells	EC50	1.17e-05
Cc1ccc2cccc(S(=O)(=O)NC(=O)c3cc4c(N(C)C)cc(C5CC5)cc4o3)c2n1 [Example 43]	ZR-75-1 cells	EC50	5.64e-06

Okay, here is my list. What is EC50 for each of these?
1. CCOc1ccc(C(C)CC)cc1S(=O)(=O)NC(=O)c1cc2c(F)cc(C3CC3)cc2o1 (centres unmarked) [Example 29]
2. Cc1cc(C)c2cc(C(=O)NS(=O)(=O)c3cccc4ccc(C)nc34)oc2c1 [Example 21]

result:
8.86e-08
1.61e-06

###

Answer each item with its documented IC50.
- Tested on: ESR1 transcription in MVLN cells
- measurement.protocol: Repression of ESR1 transcription, MVLN luciferase reporter assay
- Type: cell-based
- settings: Homo sapiens, luciferase signal after 24 h, read-out: MVLN reporter assay, IC50[M] (arithmetic mean)
Form entry: enter the amount, then its unit.

Sample records with IC50:
molecule	measured.result
CC(C)(C)c1ccc(OCC2CC2)c(S(=O)(=O)NC(=O)c2cc3c(F)cc(C4CC4)cc3o2)c1 [Example 61]	1.11e-07 M
CC(C)c1ccc(OCC2CC2)c(S(=O)(=O)NC(=O)c2cc3c(F)cc(C4CC4)cc3o2)c1 [Example 36]	1.41e-07 M
O=C(NS(=O)(=O)c1ccccc1)c1cc2c(OC(F)F)cc(C3CC3)cc2o1 [Example 46]	1.77e-05 M

# next molecule below
query: Entry under review: O=C(NS(=O)(=O)c1ccccc1-c1ccccc1)c1cc2c(C(F)(F)F)cc(C3CC3)cc2o1 [Example 53] . Reported IC50?
result: 6.16e-06 M

###

- target.of.assay: KAT6A (Homo sapiens)
- Construct: Recombinant human His-tagged Kat6a protein (amino acids 194-810); His
- Sequence (Q92794 194-810): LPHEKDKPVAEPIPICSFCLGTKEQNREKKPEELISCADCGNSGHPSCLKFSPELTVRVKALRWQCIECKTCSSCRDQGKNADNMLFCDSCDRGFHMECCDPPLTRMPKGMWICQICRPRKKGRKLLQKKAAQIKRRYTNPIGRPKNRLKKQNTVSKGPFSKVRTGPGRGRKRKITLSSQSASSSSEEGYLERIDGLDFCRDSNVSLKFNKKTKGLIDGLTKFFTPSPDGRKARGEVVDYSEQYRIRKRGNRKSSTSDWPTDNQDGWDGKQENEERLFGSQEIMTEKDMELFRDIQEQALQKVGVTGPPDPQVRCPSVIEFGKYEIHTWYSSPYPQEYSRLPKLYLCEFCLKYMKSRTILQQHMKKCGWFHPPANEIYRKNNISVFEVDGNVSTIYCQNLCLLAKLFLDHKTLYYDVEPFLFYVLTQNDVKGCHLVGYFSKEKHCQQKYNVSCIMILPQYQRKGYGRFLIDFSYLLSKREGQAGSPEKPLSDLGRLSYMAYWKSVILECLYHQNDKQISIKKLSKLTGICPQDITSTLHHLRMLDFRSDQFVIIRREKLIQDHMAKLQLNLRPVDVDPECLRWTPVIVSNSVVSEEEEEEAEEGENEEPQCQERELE
- measurement.protocol: Kat6a activity assay (TR-FRET, acetylation of biotinylated histone H4 peptide)
- settings: recombinant human His-tagged Kat6a (amino acids 194-810), 60 mins at 22° C., read-out: KAT6A-DPF/HAT domain IC50 [mol/l] (arithmetic mean)
Rule: measured IC50 below 20 nM gets Condition met; anything equal to or greater than 20 nM gets Condition not met.

query: Strictly below 20 nM: is that where IC50 of CCOc1c(F)cccc1S(=O)(=O)NC(=O)c1cc2c(F)cc(C3CC3)cc2o1 sits?
result: Condition not met

query: Strictly below 20 nM: is that where IC50 of Cc1cc(C)c2cc(C(=O)NS(=O)(=O)c3ccccc3-c3cccc(Cl)c3)oc2c1 sits?
result: Condition not met

query: Strictly below 20 nM: is that where IC50 of COc1cc(C)cc2oc(C(=O)NS(=O)(=O)c3ccccc3-c3ccccc3)cc12 sits?
result: Condition not met

query: Strictly below 20 nM: is that where IC50 of CC(C)c1ccc2cc(C(=O)NS(=O)(=O)c3ccccc3)oc2c1 sits?
result: Condition not met

query: Strictly below 20 nM: is that where IC50 of O=C(NS(=O)(=O)c1ccccc1-c1ccccc1)c1cc2c(F)cc(C3CC3)cc2o1 sits?
result: Condition met

query: Strictly below 20 nM: is that where IC50 of CC(C)c1ccc(OCC(F)(F)F)c(S(=O)(=O)NC(=O)c2cc3c(F)cc(C4CC4)cc3o2)c1 sits?
result: Condition met

query: Strictly below 20 nM: is that where IC50 of CC(C)(C)c1ccc(OC2CCC2)c(S(=O)(=O)NC(=O)c2cc3c(F)cc(C4CC4)cc3o2)c1 sits?
result: Condition met

query: Strictly below 20 nM: is that where IC50 of O=C(O)c1ccc2cc(C(=O)NS(=O)(=O)c3ccccc3-c3ccccc3)oc2c1 sits?
result: Condition not met

query: Strictly below 20 nM: is that where IC50 of CCOc1ccc(C(F)(F)F)cc1S(=O)(=O)NC(=O)c1cc2c(F)cc(C3CC3)cc2o1 sits?
result: Condition met

query: Strictly below 20 nM: is that where IC50 of O=C(NS(=O)(=O)c1ccccc1-c1ccccc1)c1cc2ccc(C3CC3)cc2o1 sits?
result: Condition not met

query: Strictly below 20 nM: is that where IC50 of CC(C)c1ccc(OCC2CC2)c(S(=O)(=O)NC(=O)c2cc3c(F)cc(C4CC4)cc3o2)c1 sits?
result: Condition met

###

- target.of.assay: KAT6B (Homo sapiens)
- Construct: fused on or other part: N-terminal GST tag
- Sequence (Q8WYB5 723-2073 limits assumed): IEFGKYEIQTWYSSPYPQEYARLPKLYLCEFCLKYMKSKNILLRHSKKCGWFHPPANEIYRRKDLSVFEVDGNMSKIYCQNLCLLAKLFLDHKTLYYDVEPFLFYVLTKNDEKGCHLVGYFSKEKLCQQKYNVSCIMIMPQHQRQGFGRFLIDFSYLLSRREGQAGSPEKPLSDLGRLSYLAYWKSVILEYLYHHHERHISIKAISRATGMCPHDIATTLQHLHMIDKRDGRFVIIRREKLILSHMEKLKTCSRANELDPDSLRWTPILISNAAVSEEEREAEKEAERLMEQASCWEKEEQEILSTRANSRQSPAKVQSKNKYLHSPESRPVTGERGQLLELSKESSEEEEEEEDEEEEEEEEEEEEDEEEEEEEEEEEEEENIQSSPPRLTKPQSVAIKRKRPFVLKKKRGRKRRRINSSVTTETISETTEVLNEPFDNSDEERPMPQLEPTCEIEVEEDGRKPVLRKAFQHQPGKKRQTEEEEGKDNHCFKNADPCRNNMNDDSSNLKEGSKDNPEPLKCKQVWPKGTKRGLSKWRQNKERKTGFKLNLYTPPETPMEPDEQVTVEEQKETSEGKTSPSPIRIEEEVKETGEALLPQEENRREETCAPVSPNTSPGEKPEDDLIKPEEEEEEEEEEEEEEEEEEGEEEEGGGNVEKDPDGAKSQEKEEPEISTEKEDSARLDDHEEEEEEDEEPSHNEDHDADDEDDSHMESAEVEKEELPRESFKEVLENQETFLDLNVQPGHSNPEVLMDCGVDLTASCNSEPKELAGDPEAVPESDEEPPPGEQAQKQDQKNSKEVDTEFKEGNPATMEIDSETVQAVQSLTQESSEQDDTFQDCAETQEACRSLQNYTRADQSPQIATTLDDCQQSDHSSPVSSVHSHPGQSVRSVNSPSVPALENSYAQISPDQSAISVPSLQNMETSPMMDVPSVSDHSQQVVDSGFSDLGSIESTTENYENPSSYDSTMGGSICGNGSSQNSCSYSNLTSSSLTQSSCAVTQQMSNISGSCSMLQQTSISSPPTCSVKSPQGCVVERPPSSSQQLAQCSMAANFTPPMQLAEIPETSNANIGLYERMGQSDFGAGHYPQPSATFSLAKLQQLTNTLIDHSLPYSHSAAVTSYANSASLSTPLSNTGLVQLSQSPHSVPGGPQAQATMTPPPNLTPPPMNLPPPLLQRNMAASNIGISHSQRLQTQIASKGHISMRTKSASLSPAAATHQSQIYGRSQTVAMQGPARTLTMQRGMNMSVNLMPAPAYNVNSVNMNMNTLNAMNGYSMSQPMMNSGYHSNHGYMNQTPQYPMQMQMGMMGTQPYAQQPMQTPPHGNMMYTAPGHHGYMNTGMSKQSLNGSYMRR
- measurement.protocol: Kat6b activity assay (TR-FRET, acetylation of biotinylated histone H4 peptide)
- settings: recombinant human GST-tagged Kat6b (431-end), 30 mins at 22° C., read-out: KAT6B activity assay IC50 [mol/l] (arithmetic mean)
reported.endpoint: IC50 (nM)
One number for each entry, in nM.

Sample records with IC50:
molecule	IC50 [nM]
O=C(NS(=O)(=O)c1ccccc1OC1CC1)c1cc2c(F)cc(C3CC3)cc2o1 [Example 24]	19
COc1cc(C)cc2oc(C(=O)NS(=O)(=O)c3ccc(C)cc3-c3ccccc3)cc12 [Example 12]	372
CC(C)c1ccc2cc(C(=O)NS(=O)(=O)c3ccccc3)oc2c1 [Example 56]	3940
Cc1cc(C)c2cc(C(=O)NS(=O)(=O)c3ccccc3-c3cccc(Cl)c3)oc2c1 [Example 11]	299
Cc1cc(C)c2cc(C(=O)NS(=O)(=O)c3ccccc3-c3ccccc3)oc2c1 [Example 9]	220
Cc1ccc2cccc(S(=O)(=O)NC(=O)c3cc4c(F)cc(C5CC5)cc4o3)c2n1 [Example 22]	22.5
Cc1ccc(S(=O)(=O)NC(=O)c2cc3c(C)cc(C)cc3o2)c(-c2ccccc2)c1 [Example 7]	114
CC(C)c1ccc2cc(C(=O)NS(=O)(=O)c3ccccc3-c3ccccc3)oc2c1 [Example 54]	667
CC(C)c1ccc2cc(C(=O)NS(=O)(=O)c3ccccc3Cl)oc2c1 [Example 73]	1780
Cc1ccc2cc(C(=O)NS(=O)(=O)c3ccccc3-c3ccccc3)oc2c1 [Example 2]	2220

Okay, here is my list. What is IC50 for each of these?
1. CCOc1ccccc1S(=O)(=O)NC(=O)c1cc2c(F)cc(C3CC3)cc2o1 [Example 25]
2. Cc1cc(C)c2cc(C(=O)NS(=O)(=O)c3cccc4ccc(C)nc34)oc2c1 [Example 21]
3. CCOc1ccccc1S(=O)(=O)NC(=O)c1cc2c(OC)cc(C)cc2o1 [Example 13]
4. Cc1cc(C)c2cc(C(=O)NS(=O)(=O)c3ccccc3-c3ccccc3C)oc2c1 [Example 6]
5. O=C(NS(=O)(=O)c1ccccc1-c1ccccc1)c1cc2ccc(C3CC3)cc2o1 [Example 16]
6. COCCc1ccc2cc(C(=O)NS(=O)(=O)c3ccccc3-c3ccccc3)oc2c1 [Example 26]

result:
1: 28.4; 2: 53.1; 3: 1730; 4: 245; 5: 104; 6: 2850

query: Entry under review: O=C(NS(=O)(=O)c1ccccc1-c1ccccc1)c1cc2ccc(C(F)F)cc2o1 [Example 17] . Reported IC50?
result: 2580
